Organism: Rattus norvegicus
Assay: Open TG-GATES - Regimen: Single
Assay type: toxicity, organism-based, Sprague-Dawley
Design: regimen Single, gender Male, age 6 weeks
Conditions: in vivo, po, 0 mg/kg, 9 h, tissue Blood, route gavage, dose level Control
readout type: MCH (pg)
Report the figure in pg without appending any unit label.

Answer with the recorded MCH of "O=[N+]([O-])c1ccc(O)c([N+](=O)[O-])c1" only.
22

Answer with the recorded MCH of CCOC(=O)C(C)(C)Oc1ccc(Cl)cc1 [CLOFIBRATE] only.
20.8

Answer with the recorded MCH of Cc1cccc(C)c1OCC(C)N (centres undefined) only.
20.7

Answer with the recorded MCH of "Cc1ccc2cc3c(ccc4ccccc43)c3c2c1CC3" only.
20.7

Answer with the recorded MCH of "C[C@H]1C(=O)O[C@@H]2CCN3CC=C(COC(=O)[C@](C)(O)[C@]1(C)O)[C@H]23" only.
21.4

Answer with the recorded MCH of "C=C(C)[C@H]1Cc2c(ccc3c2O[C@@H]2COc4cc(OC)c(OC)cc4[C@@H]2C3=O)O1" only.
21.4

Answer with the recorded MCH of "OCCN1CCN(CCCN2c3ccccc3Sc3ccc(C(F)(F)F)cc32)CC1" only.
21.7

Answer with the recorded MCH of "Cn1cc[nH]c1=S" only.
22

Answer with the recorded MCH of C[C@H]1O[C@H](O[C@H]2[C@H](O)[C@@H](O)[C@@H](O[C@H]3[C@H](O)[C@@H](O)C(O)O[C@@H]3CO)O[C@@H]2CO)[C@H](O)[C@@H](O)[C@@H]1N[C@H]1C=C(CO)[C@@H](O)[C@H](O)[C@H]1O (some centres undefined) only.
20.9

====

Species: Rattus norvegicus
Assay: Open TG-GATES - Regimen: Single
Type: toxicity, organism-based, Sprague-Dawley
Parameters: regimen Single, gender Male, age 6 weeks
Conditions: in vivo, po, 0 mg/kg, 6 h, tissue Plasma, route gavage, dose level Control
Provide the reported BUN of each item.
Report the figure in mg/dL without appending any unit label.

Answer with the recorded BUN of "Cn1cc[nH]c1=S" only.
10.8

Answer with the recorded BUN of "Cc1ccc2cc3c(ccc4ccccc43)c3c2c1CC3" only.
8.9

Answer with the recorded BUN of "C=C(C)[C@H]1Cc2c(ccc3c2O[C@@H]2COc4cc(OC)c(OC)cc4[C@@H]2C3=O)O1" only.
9.6

Answer with the recorded BUN of Cc1cccc(C)c1OCC(C)N (centres undefined) only.
10.4

Answer with the recorded BUN of "O=[N+]([O-])c1ccc(O)c([N+](=O)[O-])c1" only.
10.4

Answer with the recorded BUN of C[C@H]1O[C@H](O[C@H]2[C@H](O)[C@@H](O)[C@@H](O[C@H]3[C@H](O)[C@@H](O)C(O)O[C@@H]3CO)O[C@@H]2CO)[C@H](O)[C@@H](O)[C@@H]1N[C@H]1C=C(CO)[C@@H](O)[C@H](O)[C@H]1O (some centres undefined) only.
8.8

Answer with the recorded BUN of "OCCN1CCN(CCCN2c3ccccc3Sc3ccc(C(F)(F)F)cc32)CC1" only.
11.2

Answer with the recorded BUN of "C[C@H]1C(=O)O[C@@H]2CCN3CC=C(COC(=O)[C@](C)(O)[C@]1(C)O)[C@H]23" only.
11.4

Answer with the recorded BUN of CCOC(=O)C(C)(C)Oc1ccc(Cl)cc1 [CLOFIBRATE] only.
8.6

====

Provide the reported Hb of each item.
Species on record: Rattus norvegicus
Assay: Open TG-GATES - Regimen: Single
Type: toxicity, organism-based, Sprague-Dawley
Set-up: regimen Single, gender Male, age 6 weeks
Conditions: in vivo, po, 0 mg/kg, 9 h, tissue Blood, route gavage, dose level Control
Report the figure in g/dL without appending any unit label.

Answer with the recorded Hb of Cc1cccc(C)c1OCC(C)N (centres undefined) [MEXILETINE] only.
12.9

Answer with the recorded Hb of CCOC(=O)C(C)(C)Oc1ccc(Cl)cc1 [CLOFIBRATE] only.
13.4

Answer with the recorded Hb of O=[N+]([O-])c1ccc(O)c([N+](=O)[O-])c1 [2,4-DINITROPHENOL] only.
13

Answer with the recorded Hb of C[C@H]1O[C@H](O[C@H]2[C@H](O)[C@@H](O)[C@@H](O[C@H]3[C@H](O)[C@@H](O)C(O)O[C@@H]3CO)O[C@@H]2CO)[C@H](O)[C@@H](O)[C@@H]1N[C@H]1C=C(CO)[C@@H](O)[C@H](O)[C@H]1O (some centres undefined) [ACARBOSE] only.
13.2

Answer with the recorded Hb of Cc1ccc2cc3c(ccc4ccccc43)c3c2c1CC3 [3-METHYLCHOLANTHRENE] only.
12.5

Answer with the recorded Hb of Cn1cc[nH]c1=S [METHIMAZOLE] only.
13.4

Answer with the recorded Hb of C[C@H]1C(=O)O[C@@H]2CCN3CC=C(COC(=O)[C@](C)(O)[C@]1(C)O)[C@H]23 [MONOCROTALINE] only.
13.3

Answer with the recorded Hb of C=C(C)[C@H]1Cc2c(ccc3c2O[C@@H]2COc4cc(OC)c(OC)cc4[C@@H]2C3=O)O1 [ROTENONE] only.
13

Answer with the recorded Hb of OCCN1CCN(CCCN2c3ccccc3Sc3ccc(C(F)(F)F)cc32)CC1 [FLUPHENAZINE] only.
12.6

====

Species on record: Rattus norvegicus
Test: Open TG-GATES - Regimen: Single
Assay type: toxicity, organism-based, Sprague-Dawley
Parameters: regimen Single, gender Male, age 6 weeks
Settings: in vivo, po, 0 mg/kg, 24 h, tissue Blood, route gavage, dose level Control
readout type: PT (s)
Report the figure in s without appending any unit label.

Answer with the recorded PT of "C[C@H]1C(=O)O[C@@H]2CCN3CC=C(COC(=O)[C@](C)(O)[C@]1(C)O)[C@H]23" only.
16.5

Answer with the recorded PT of "O=[N+]([O-])c1ccc(O)c([N+](=O)[O-])c1" only.
11.6

Answer with the recorded PT of "C=C(C)[C@H]1Cc2c(ccc3c2O[C@@H]2COc4cc(OC)c(OC)cc4[C@@H]2C3=O)O1" only.
12

Answer with the recorded PT of CCOC(=O)C(C)(C)Oc1ccc(Cl)cc1 [CLOFIBRATE] only.
12.5

====

Provide the reported Cl of each item.
Organism: Rattus norvegicus
Test: Open TG-GATES - Regimen: Daily Repeat
Format: toxicity, organism-based, Sprague-Dawley
Design: regimen Daily Repeat, gender Male, age 6 weeks
Settings: in vivo, po, 0 mg/kg, […], tissue Plasma, route gavage, dose level Control, time 14 day
Report the figure in meq/L without appending any unit label.

Answer with the recorded Cl of Cn1cc[nH]c1=S [METHIMAZOLE] only.
106

Answer with the recorded Cl of O=C1CN(/N=C/c2ccc([N+](=O)[O-])o2)C(=O)N1 [NITROFURANTOIN] only.
101.6

Answer with the recorded Cl of CCOC(=O)C(C)(C)Oc1ccc(Cl)cc1 [CLOFIBRATE] only.
101

Answer with the recorded Cl of Cc1cccc(C)c1OCC(C)N (centres undefined) [MEXILETINE] only.
104.6

Answer with the recorded Cl of OCCN1CCN(CCCN2c3ccccc3Sc3ccc(C(F)(F)F)cc32)CC1 [FLUPHENAZINE] only.
102.6

Answer with the recorded Cl of O=[N+]([O-])c1ccc(O)c([N+](=O)[O-])c1 [2,4-DINITROPHENOL] only.
104.2

Answer with the recorded Cl of C[C@H]1O[C@H](O[C@H]2[C@H](O)[C@@H](O)[C@@H](O[C@H]3[C@H](O)[C@@H](O)C(O)O[C@@H]3CO)O[C@@H]2CO)[C@H](O)[C@@H](O)[C@@H]1N[C@H]1C=C(CO)[C@@H](O)[C@H](O)[C@H]1O (some centres undefined) [ACARBOSE] only.
105.8

Answer with the recorded Cl of C[C@H]1C(=O)O[C@@H]2CCN3CC=C(COC(=O)[C@](C)(O)[C@]1(C)O)[C@H]23 [MONOCROTALINE] only.
105.6

Answer with the recorded Cl of C=C(C)[C@H]1Cc2c(ccc3c2O[C@@H]2COc4cc(OC)c(OC)cc4[C@@H]2C3=O)O1 [ROTENONE] only.
104.8

====

Organism: Rattus norvegicus
Test: Open TG-GATES - Regimen: Single
Type: toxicity, organism-based, Sprague-Dawley
Design: regimen Single, gender Male, age 6 weeks
Details: in vivo, po, 0 mg/kg, 24 h, tissue Plasma, route gavage, dose level Control
Provide the reported TG of each item.
Report the figure in mg/dL without appending any unit label.

Answer with the recorded TG of CCOC(=O)C(C)(C)Oc1ccc(Cl)cc1 [CLOFIBRATE] only.
125.4

Answer with the recorded TG of "C[C@H]1C(=O)O[C@@H]2CCN3CC=C(COC(=O)[C@](C)(O)[C@]1(C)O)[C@H]23" only.
101.6

Answer with the recorded TG of "Cc1ccc2cc3c(ccc4ccccc43)c3c2c1CC3" only.
134.9

Answer with the recorded TG of Cc1cccc(C)c1OCC(C)N (centres undefined) only.
74.6

Answer with the recorded TG of C[C@H]1O[C@H](O[C@H]2[C@H](O)[C@@H](O)[C@@H](O[C@H]3[C@H](O)[C@@H](O)C(O)O[C@@H]3CO)O[C@@H]2CO)[C@H](O)[C@@H](O)[C@@H]1N[C@H]1C=C(CO)[C@@H](O)[C@H](O)[C@H]1O (some centres undefined) only.
59.2

Answer with the recorded TG of "C=C(C)[C@H]1Cc2c(ccc3c2O[C@@H]2COc4cc(OC)c(OC)cc4[C@@H]2C3=O)O1" only.
123.6

Answer with the recorded TG of "Cn1cc[nH]c1=S" only.
120.4

Answer with the recorded TG of "O=[N+]([O-])c1ccc(O)c([N+](=O)[O-])c1" only.
120.4

Answer with the recorded TG of "OCCN1CCN(CCCN2c3ccccc3Sc3ccc(C(F)(F)F)cc32)CC1" only.
134.2
